Reference for the values: the supplement of paper PMC12338614

B1: library; numbered along this chain (parent)
chain: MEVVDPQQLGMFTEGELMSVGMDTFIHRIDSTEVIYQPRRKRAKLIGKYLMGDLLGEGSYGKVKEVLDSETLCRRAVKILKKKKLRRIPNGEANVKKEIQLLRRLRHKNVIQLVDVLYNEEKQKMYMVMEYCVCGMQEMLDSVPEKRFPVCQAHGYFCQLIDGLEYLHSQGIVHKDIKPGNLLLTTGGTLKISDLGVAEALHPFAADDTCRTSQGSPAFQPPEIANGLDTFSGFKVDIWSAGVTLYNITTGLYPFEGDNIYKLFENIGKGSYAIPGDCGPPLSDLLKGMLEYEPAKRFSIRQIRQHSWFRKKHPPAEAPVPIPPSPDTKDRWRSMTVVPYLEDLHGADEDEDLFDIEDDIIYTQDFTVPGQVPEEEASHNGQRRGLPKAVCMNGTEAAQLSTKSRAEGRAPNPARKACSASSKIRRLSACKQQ

variants of: B1; experiment: STK11 functional score (HeLa growth suppression), rescaled enrichment; synonymous median = 1, nonsense median = 0 (normalised score); settings: with HeLa; variant type: missense
Assignment: determine reported STK11 functional score for the given variants.
Output: the number by itself.

Reported STK11 functional score, variant K287G : ____
1.28

Field entry: H27R
1.03

Another variant to check: L117R
1.15

Another: E265A
1.3

Quick one: G163W
0.91

Moving on to V20I
1.22

Query I360Y next
1.52

Try the variant M335Q
1.01

Further, for F264P ?
1.4

Item: V150L
0.401

Then what about the variant K431S ?
1.64

Okay, and F204D ?
1.09

How about this variant: N90S
1.21

# iterate: E57F
0.821

Another variant to look at: S240M
0.927

Proceed to R106M
1.59

For R415H then?
1.6

Now the same for Y49F
1.12

And what about the variant V95R ?
1.02

Same again, this time with R415W
1.5

Same again, this time with K146S
1.33

Same for R75N
-0.061
